Value source: ChEMBL document CHEMBL3826882

Assay: AUC (0 to infinity) in rat plasma at 50 mg/kg, po
Format: ADME, organism-based
Design: dose 50 mg/kg, time infinity, route oral
PROPERTY_MEASURED: AUC(0-inf) (ng·h/mL)
Write the answer as a number in ng·h/mL, unit excluded.

## Input Provide AUC(0-inf) value for the following compound: CC(C)O[P@@]1(=O)OC[C@H]2O[C@@H](n3ccc(=O)[nH]c3=O)[C@@]3(CCO3)[C@@H]2O1
## Output 7440

====

Assay: Ratio of AUC (0 to last) in rat liver to AUC (0 to last) in rat plasma
Format: ADME
PROPERTY_MEASURED: Kp
Give only the figure.

## Input Provide Kp value for the following molecule: CC(C)O[P@@]1(=O)OC[C@H]2O[C@@H](n3ccc(=O)[nH]c3=O)[C@@]3(CCO3)[C@@H]2O1
## Output 0.34

====

Test: Cmax in rat plasma at 50 mg/kg, po
Assay type: ADME, organism-based
Parameters: dose 50 mg/kg, route oral
PROPERTY_MEASURED: Cmax (ng/mL)
Write the answer as a number in ng/mL, unit excluded.

## Input Provide Cmax value for the following compound: CC(C)O[P@@]1(=O)OC[C@H]2O[C@@H](n3ccc(=O)[nH]c3=O)[C@@]3(CCO3)[C@@H]2O1
## Output 1290

====

Test: Cmax in dog liver at 50 mg/kg, po
Assay type: ADME, organism-based, Canis lupus familiaris
Design: dose 50 mg/kg, route oral
PROPERTY_MEASURED: Cmax (ng/g)
Write the answer as a number in ng/g, unit excluded.

## Input Provide Cmax value for the following compound: CC(C)O[P@@]1(=O)OC[C@H]2O[C@@H](n3ccc(=O)[nH]c3=O)[C@@]3(CCO3)[C@@H]2O1
## Output 5030

====

Test: Tmax in dog liver at 50 mg/kg, po
Type: ADME, organism-based, Canis lupus familiaris
PROPERTY_MEASURED: Tmax
Numeric answer plus unit only.

## Input Provide Tmax value for the following compound: CC(C)O[P@@]1(=O)OC[C@H]2O[C@@H](n3ccc(=O)[nH]c3=O)[C@@]3(CCO3)[C@@H]2O1
## Output 1 h

====

Experiment: AUC (0 to infinity) in mouse plasma at 50 mg/kg, po
Format: ADME, organism-based
Set-up: dose 50 mg/kg, route oral, time infinity
PROPERTY_MEASURED: AUC(0-inf) (ng·h/mL)
Write the answer as a number in ng·h/mL, unit excluded.

## Input Provide AUC(0-inf) value for the following compound: CC(C)O[P@@]1(=O)OC[C@H]2O[C@@H](n3ccc(=O)[nH]c3=O)[C@@]3(CCO3)[C@@H]2O1
## Output 2620

====

Assay: Cmax in mouse liver at 50 mg/kg, po
Assay type: ADME, organism-based
Design: dose 50 mg/kg, route oral
PROPERTY_MEASURED: Cmax (ng/g)
Write the answer as a number in ng/g, unit excluded.

## Input Provide Cmax value for the following compound: CC(C)O[P@@]1(=O)OC[C@H]2O[C@@H](n3ccc(=O)[nH]c3=O)[C@@]3(CCO3)[C@@H]2O1
## Output 701

====

Test system: Hepatitis C virus
Experiment: Antiviral activity against HCV genotype 1b infected in human HuH7 cells assessed as inhibition of viral replication after 3 days by luciferase reporter gene assay
Assay type: functional, organism-based, Hepacivirus hominis
Conditions: Huh-7, 72 h
PROPERTY_MEASURED: pEC50
For clarity, pEC50 is expressed as the negative log10 of concentration in mol/L.

## Input Provide pEC50 value for the following compound: CCOc1nc(N)nc2c1ncn2[C@@H]1O[C@@H]2CO[P@](=O)(OC(C)C)O[C@H]2[C@@]1(C)F
## Output 6.52
